- Test system: COX I
- Procedure Text: PGE2 production in freshly isolated human monocytes
- Format: cell-based
- Condition Label: 30 min incubation; d) 30 min activation, 20 μM AA; EIA; cells may be expressing COX II constitutively; read-out: COX I IC50, inhibition of PGE2 production
Measured Metric: IC50

Record Cc1cc(Cc2ccc(=O)[nH]n2)n(C)c1C(=O)c1ccc(Cl)cc1 , field IC50: > 10 µM

* * *

- Assay Target: COX II (Homo sapiens, UniProt P35354)
- Sequence (P35354 18-604): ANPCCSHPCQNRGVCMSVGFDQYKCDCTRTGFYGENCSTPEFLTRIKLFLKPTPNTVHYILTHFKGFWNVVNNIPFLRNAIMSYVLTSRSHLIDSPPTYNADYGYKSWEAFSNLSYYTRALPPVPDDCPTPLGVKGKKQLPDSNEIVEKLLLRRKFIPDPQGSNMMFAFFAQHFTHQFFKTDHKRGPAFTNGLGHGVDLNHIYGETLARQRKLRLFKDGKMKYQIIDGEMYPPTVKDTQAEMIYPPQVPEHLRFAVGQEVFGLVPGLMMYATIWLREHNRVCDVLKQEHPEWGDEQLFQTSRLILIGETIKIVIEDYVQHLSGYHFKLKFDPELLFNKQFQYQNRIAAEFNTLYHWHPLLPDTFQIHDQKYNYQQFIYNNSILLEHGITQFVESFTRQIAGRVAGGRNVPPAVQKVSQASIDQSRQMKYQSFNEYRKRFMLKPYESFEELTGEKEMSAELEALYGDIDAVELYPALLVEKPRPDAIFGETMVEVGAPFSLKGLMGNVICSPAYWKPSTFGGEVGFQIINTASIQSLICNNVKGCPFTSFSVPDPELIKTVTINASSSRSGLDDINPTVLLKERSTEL
- Procedure Text: PGE2 production in human adherent monocytes stimulated with LPS
- Type: cell-based
- Condition Label: 30 min incubation; c) 10 min activation, 20 μM AA; EIA; read-out: COX II IC50, inhibition of PGE2 production
Measured Metric: pIC50
Please keep in mind that pIC50 is minus log10 of the molar concentration; only the number is needed.

Record Cc1cc(Cc2ccc(=O)[nH]n2)n(C)c1C(=O)c1ccc(Cl)cc1 , field pIC50: 5.55

Value source: patent US5622948A
